Below is a list of entries, each paired with its recorded pKd value.
Molecular target: T1, EsCas13d, nuclease-dead (Eubacterium siraeum, UniProt B0MS50, R295A;H300A;R849A;H854A)
T1 sequence: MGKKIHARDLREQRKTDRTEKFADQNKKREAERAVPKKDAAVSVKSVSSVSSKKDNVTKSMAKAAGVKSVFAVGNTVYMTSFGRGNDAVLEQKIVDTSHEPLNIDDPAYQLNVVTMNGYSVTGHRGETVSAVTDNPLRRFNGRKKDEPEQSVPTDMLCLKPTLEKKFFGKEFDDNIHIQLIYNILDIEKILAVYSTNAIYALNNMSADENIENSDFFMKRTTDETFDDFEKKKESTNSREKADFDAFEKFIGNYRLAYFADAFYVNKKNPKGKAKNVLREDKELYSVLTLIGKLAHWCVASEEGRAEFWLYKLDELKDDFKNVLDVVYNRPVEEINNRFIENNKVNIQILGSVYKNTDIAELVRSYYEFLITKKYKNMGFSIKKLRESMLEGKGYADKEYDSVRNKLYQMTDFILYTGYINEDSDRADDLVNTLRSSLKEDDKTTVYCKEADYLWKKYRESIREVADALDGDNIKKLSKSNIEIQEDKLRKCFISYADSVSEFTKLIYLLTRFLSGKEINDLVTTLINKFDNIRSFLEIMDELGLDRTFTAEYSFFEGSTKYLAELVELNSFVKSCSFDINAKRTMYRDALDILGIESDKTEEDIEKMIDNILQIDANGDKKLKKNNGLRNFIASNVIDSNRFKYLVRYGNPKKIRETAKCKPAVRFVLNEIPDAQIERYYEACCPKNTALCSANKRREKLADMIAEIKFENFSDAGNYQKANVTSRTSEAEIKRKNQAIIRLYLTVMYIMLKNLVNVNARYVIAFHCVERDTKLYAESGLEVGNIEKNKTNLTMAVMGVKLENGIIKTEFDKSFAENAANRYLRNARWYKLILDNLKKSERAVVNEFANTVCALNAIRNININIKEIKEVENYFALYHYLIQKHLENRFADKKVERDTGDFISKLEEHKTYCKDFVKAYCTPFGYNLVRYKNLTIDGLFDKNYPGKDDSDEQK
Test: crRNA (strand 1, pre-loaded); Mg2+; 40 mM Tris-HCl pH 7.5, 150 mM NaCl, 6 mM MgCl2, 1 mM DTT, 0.1% Tween-20, 0.2 mg/ml BSA; 25 C; 10 min per concentration, then washed
Settings: tags: His6-TwinStrep-SUMO cleaved; N-terminal SNAP kept (SNAP-Surface 488); label: 3' end held by stalled T7 RNA polymerase
The read-out pKd is expressed as -log10 of concentration in moles per litre.

target 3 insA 3' of 21,insG 3' of 5 (mixed) RNA 1: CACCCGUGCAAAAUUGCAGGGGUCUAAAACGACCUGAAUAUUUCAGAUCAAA RNA 2: GGGAAUGGAUCCACAUCUACGAAUUCGUUUUAUGAUCUGAAAUAUUCAGGGUCUGCAGAUCGGAAGAGCACACGU; 7.15
target 1 MT 5'PFS CCC 3'PFS UGC (mixed) RNA 1: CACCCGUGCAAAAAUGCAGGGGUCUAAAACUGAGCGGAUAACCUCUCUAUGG RNA 2: GGGAAUGGAUCCACAUCUACGAAUUCCCCCCAUAGAGAGGUUAUCCGCUCAUGCAGAUCGGAAGAGCACACGU; 8.07
target 1 insA 3' of 11,insA 3' of 6 (mixed) RNA 1: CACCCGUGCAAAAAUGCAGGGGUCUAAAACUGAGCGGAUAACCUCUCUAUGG RNA 2: GGGAAUGGAUCCACAUCUACGAAUUCGUACCAUAGAGAGGUAUAUCCAGCUCACCGAGAUCGGAAGAGCACACGU; 7.88
target 1 MT 5'PFS CAA 3'PFS CUG (mixed) RNA 1: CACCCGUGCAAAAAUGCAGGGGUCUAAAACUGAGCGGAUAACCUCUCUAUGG RNA 2: GGGAAUGGAUCCACAUCUACGAAUUCCAACCAUAGAGAGGUUAUCCGCUCACUGAGAUCGGAAGAGCACACGU; 7.84
target 2 MT 5'PFS GCC 3'PFS CGG (mixed) RNA 1: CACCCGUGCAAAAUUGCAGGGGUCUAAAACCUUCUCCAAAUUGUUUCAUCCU RNA 2: GGGAAUGGAUCCACAUCUACGAAUUCGCCAGGAUGAAACAAUUUGGAGAAGCGGAGAUCGGAAGAGCACACGU; 7.87

Query block: Which pKd value belongs to target 1 insA 3' of 13,insG 3' of 9 (mixed) RNA 1: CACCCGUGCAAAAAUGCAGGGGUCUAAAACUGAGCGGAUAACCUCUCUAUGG RNA 2: GGGAAUGGAUCCACAUCUACGAAUUCGUACCAUAGAGAGAGUUAGUCCGCUCACCGAGAUCGGAAGAGCACACGU ?
Result block: 8.16

Query block: Value lookup for pKd; key = target 1 insC 3' of 3,insG 3' of 1 (mixed) RNA 1: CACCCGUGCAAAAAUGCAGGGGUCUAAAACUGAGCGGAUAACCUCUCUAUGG RNA 2: GGGAAUGGAUCCACAUCUACGAAUUCGUACCAUAGAGAGGUUAUCCGCUCCAGCCGAGAUCGGAAGAGCACACGU
Result block: 7.95

Query block: Which measured pKd value corresponds to target 1 insC 3' of 3,insA 3' of 3 (mixed) RNA 1: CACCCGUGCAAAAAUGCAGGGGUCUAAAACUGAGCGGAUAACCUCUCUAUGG RNA 2: GGGAAUGGAUCCACAUCUACGAAUUCGUACCAUAGAGAGGUUAUCCGCUCACACCGAGAUCGGAAGAGCACACGU ?
Result block: 8.01

Query block: Item under review: target 1 MT 5'PFS GCG 3'PFS UGA (mixed) RNA 1: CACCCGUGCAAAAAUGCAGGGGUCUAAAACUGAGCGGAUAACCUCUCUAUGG RNA 2: GGGAAUGGAUCCACAUCUACGAAUUCGCGCCAUAGAGAGGUUAUCCGCUCAUGAAGAUCGGAAGAGCACACGU . Reported pKd?
Result block: 7.68

Query block: Could you share which pKd value was measured for target 1 MT 5'PFS GUA 3'PFS CUU (mixed) RNA 1: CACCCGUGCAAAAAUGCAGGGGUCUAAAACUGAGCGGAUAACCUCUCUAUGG RNA 2: GGGAAUGGAUCCACAUCUACGAAUUCGUACCAUAGAGAGGUUAUCCGCUCACUUAGAUCGGAAGAGCACACGU ?
Result block: 8.07

Query block: // pKd lookup, key: target 1 insC 3' of 8,insU 3' of 1 (mixed) RNA 1: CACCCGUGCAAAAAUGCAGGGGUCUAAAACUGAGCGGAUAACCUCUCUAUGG RNA 2: GGGAAUGGAUCCACAUCUACGAAUUCGUACCAUAGAGAGGUUAUCCCGCUCAUCCGAGAUCGGAAGAGCACACGU
Result block: 7.58

Query block: May I ask what pKd has been recorded for target 1 G5U,G17U (mixed) RNA 1: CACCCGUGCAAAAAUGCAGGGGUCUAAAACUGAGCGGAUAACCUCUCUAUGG RNA 2: GGGAAUGGAUCCACAUCUACGAAUUCGUACCAUAUAGAGGUUAUCCUCUCACCGAGAUCGGAAGAGCACACGU ?
Result block: 7.21

Query block: Entry target 2 MT 5'PFS GUU 3'PFS ACG (mixed) RNA 1: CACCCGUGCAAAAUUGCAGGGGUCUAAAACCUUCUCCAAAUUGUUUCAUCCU RNA 2: GGGAAUGGAUCCACAUCUACGAAUUCGUUAGGAUGAAACAAUUUGGAGAAGACGAGAUCGGAAGAGCACACGU : reported pKd = ?
Result block: 7.76

Query block: Can you look up the measured pKd of target 2 MT 5'PFS GCG 3'PFS AGC (mixed) RNA 1: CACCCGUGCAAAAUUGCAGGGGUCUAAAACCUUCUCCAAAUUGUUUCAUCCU RNA 2: GGGAAUGGAUCCACAUCUACGAAUUCGCGAGGAUGAAACAAUUUGGAGAAGAGCAGAUCGGAAGAGCACACGU for me?
Result block: 8.01
